// provenance: ChEMBL document CHEMBL3045061

- Tested on: Diaporthe ampelina
- ASSAY_NOTES: Antifungal activity against Diaporthe ampelina assessed as growth inhibition after 120 hr by NCCLS M27-A broth microdilution method
- Assay type: functional, organism-based
Calls of active or inactive are those of the source. No cut-off for these calls is given here.
OBSERVATION_TYPE: Activity

Known Activity results, listed for orientation:
COc1cc(O)cc(/C=C/c2ccccc2)c1 [PINOSYLVIN METHYL ETHER] :: Active
Oc1cccc(CCc2ccccc2)c1 [3-PHENETHYLPHENOL] :: Active
COc1cccc(/C=C/c2ccc(O)cc2)c1 [(E)-5-METHOXY-4'-STILBENOL] :: Active
Oc1ccc(/C=C/c2cc(O)cc(O)c2)cc1 [RESVERATROL] :: inactive

Query block: Short answer please: Activity, Diaporthe ampelina, entry CC(C)=CCC/C(C)=C/Cc1c(O)cc(/C=C/c2ccc(O)cc2O)cc1O [CHLOROPHORIN]
Result block: Active

Query block: Notebook: pull reported Activity for Diaporthe ampelina, entry Oc1ccc(/C=C/c2ccccc2)cc1O
Result block: inactive

Query block: Param readout = Activity; param system = Diaporthe ampelina; param query = Oc1cc(O)cc(/C=C/c2ccccc2)c1 [PINOSYLVIN] ; response: value
Result block: inactive
